FYI, the data here is from the RNAGym collection of RNA variant scans (doi:10.1073/pnas.2313332121).

B1: TPR t1 (parent)
chain: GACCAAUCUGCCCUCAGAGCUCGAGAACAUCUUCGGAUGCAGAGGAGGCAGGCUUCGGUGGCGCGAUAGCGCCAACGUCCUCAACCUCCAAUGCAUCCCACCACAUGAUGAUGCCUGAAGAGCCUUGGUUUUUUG

variants of: B1; experiment: polymerase ribozyme fitness, log enrichment relative to wild type (log ratio); higher = more active; in vitro selection for triplet polymerase activity
Respond with satisfied for polymerase ribozyme fitness (log ratio) values of -2 and above, not satisfied for values below.

Some entries whose results are on file:
| MUTATION_NAME | ANSWER_LABEL |
| --- | --- |
| G60C U109G | not satisfied |
| U21G A50U G69A A108G G110A U112G | not satisfied |
| C12U G69U U78G A100U | satisfied |
| G48C C56G C62U U78C C115U C124A | not satisfied |
| U9G U14A G52C | satisfied |

Query string: Determine whether this variant has polymerase ribozyme fitness (log ratio) no lower than -2: A26C C34A C56A C94G A111U
Result string: not satisfied

Query string: Another: G39U C49G A118U
Result string: satisfied

Query string: Also, C11U C15A A26G C53G G63U G120C please.
Result string: not satisfied

Query string: And the next one, C34U C70G ?
Result string: not satisfied

Query string: Same read-out for C12A G45U C56U G93A ?
Result string: not satisfied

Query string: Can you check C101U C123A next?
Result string: satisfied

Query string: Same again, this time with C8G G107U G113A
Result string: not satisfied

Query string: # iterate: C11A U54G U81A
Result string: not satisfied

Query string: Quick one: G17A C20A C31G G36U A46C C124A
Result string: not satisfied

Query string: Try the variant G42C U109C
Result string: not satisfied

Query string: One more variant: G110A G120U
Result string: satisfied

Query string: Next record, please: G52C C56U U78G G128C
Result string: not satisfied

Query string: Proceed to C73G C97G C114A A121G
Result string: not satisfied

Query string: Next variant: G52A C62U G117U
Result string: not satisfied

Query string: Thanks! And U54G C72A ?
Result string: satisfied
